Origin of the recorded values: PubChem BioAssay (NCI)

We begin with a simple list: items and their reported TGI.
System: SF-268 CNS
PROCEDURE_SUMMARY: NCI tumour cell line growth inhibition, 48 h
Reply numerically in µM, unit not repeated.

{"COMPOUND": "C#CCNC(=O)CC[C@@H](C)[C@H]1CC[C@H]2[C@@H]3CC[C@@H]4CC(=O)CC[C@]4(C)[C@H]3CC[C@]12C", "READING_UNIT": "µM", "TGI": 44.4}
{"COMPOUND": "CC(C)[Si](Oc1ccc(CC2N(C(=O)c3ccc([N+](=O)[O-])cc3)C(CCc3ccccc3)CC2(C)C=O)cc1)(C(C)C)C(C)C (stereo not given)", "READING_UNIT": "µM", "TGI": 54.8}
{"COMPOUND": "O=C(O)c1ccc(/C=N/N=C2c3ccccc3-c3ccccc32)cc1", "READING_UNIT": "µM", "TGI": 89.3}
{"COMPOUND": "CC(=O)ON=C1C=CC(=C(C#N)c2ccccc2)C=C1", "READING_UNIT": "µM", "TGI": 6.33}

TGI reported for this compound `COc1ccc2nc3cc(Cl)ccc3c(NCCCCCC(=O)NC(COc3ccc4ccc5cccnc5c4n3)COc3ccc4ccc5cccnc5c4n3)c2c1` : 34.9

---

Test system: A498 renal
PROCEDURE_SUMMARY: NCI tumour cell line growth inhibition, 48 h; in the data active means GI50 below about 0.43 µM; inactive means the rest
// classify into active, inactive

Q: Per the assay record, what outcome was assigned to `C#CCNC(=O)CC[C@@H](C)[C@H]1CC[C@H]2[C@@H]3CC[C@@H]4CC(=O)CC[C@]4(C)[C@H]3CC[C@]12C` ?
Ans: inactive

Q: Dear colleague, could you share the recorded outcome for CCCCCCCCCCCCCCCCCC[S+](C)CC (stereo not drawn) when you have a moment?
Ans: inactive

Q: Could you check what this test reported for CCC(C)C1NC(=O)C(NC(=O)C(CC(C)C)N(C)C(=O)[C@@H]2CC(O)CN2C(=O)[C@H](C)O)C(C)OC(=O)[C@H](Cc2ccc(OC)cc2)N(C)C(=O)[C@@H]2CCCN2C(=O)[C@H](CC(C)C)NC(=O)C(C)C(=O)[C@H](C(C)C)OC(=O)CC1O (stereo partly drawn) ?
Ans: active

Q: Short answer needed: outcome of this test for `Nc1cc(N)c2nc(NCCc3ccc(Cl)c(Cl)c3)cnc2c1` ?
Ans: inactive

Q: Could you please tell me the result logged for `C=CC(=O)N1CCC[C@@H](n2nc(-c3ccc(Oc4ccccc4)cc3)c3c(N)ncnc32)C1` in this assay?
Ans: inactive

Q: Each compound tested received a call. Report the one for `Cc1cc(-c2cc(OC(=O)c3ccccc3)ccc2Cl)cc2nnc(Nc3ccc(OCCN4CCCC4)cc3)nc12` .
Ans: inactive

Q: Identify the outcome logged in this assay for the compound shown: `Nc1ncnc2c1ccn2-c1cccc(NC(=O)c2ccc(N3CCOCC3)c(C(F)(F)F)c2)c1`
Ans: inactive

Q: Called result for `Fc1ccc(Nc2nc3nonc3nc2Nc2ccc(I)cc2)cc1`
Ans: active

---

Tested on: HCT-116 colon
PROCEDURE_SUMMARY: NCI tumour cell line growth inhibition, 48 h
Below, each entry is listed with its recorded TGI.
Answer format: numeric, µM implied, no suffix.

// solved cases for TGI follow
{"STRUCTURE_SMILES_STRING": "[CH3][Hg]/[N]=C(/N)NC#N", "TGI (µM)": 27.9}
{"STRUCTURE_SMILES_STRING": "Nc1c(C(=O)Nc2cccc(C(F)(F)F)c2)sc2nc3c(cc12)CCCCCC3", "TGI (µM)": 4.34}

Notebook: `COCCCNc1c2ccccc2nc2ccccc12` , TGI read as 15.7
